# SYSTEM: Glutamate NMDA receptor
# EXPERIMENTAL DETAILS: Displacement of [3H]CPP from N-methyl-D-aspartate glutamate receptor in rat brain membrane
# Format: cell membranes
Record form. Attribute: IC50. Fill in for each entry.

Worked set:
COMPOUND	IC50
O=C(O)C1CN(Cc2ccccc2P(=O)(O)O)CCN1 (stereo not drawn)	> 100 µM
NC(CCCCC(N)C(=O)O)C(=O)O (stereo not drawn)	> 100 µM

Please turn your attention to the following entry.
Q: IC50 lookup needed for NC(CCP(=O)(O)O)C(=O)O (stereo not drawn) , thanks.
Ans: > 100 µM
